system: Magnaporthe grisea; format: cell-based; details: 100 ppm, 96-well plate, replicate 3
Checkbox rule: Antifungal rate of Magnaporthe grisea (%), Replicate 3 lower than 90% = 1.0; Antifungal rate of Magnaporthe grisea (%), Replicate 3 not lower than 90% = 0.0.

[
  {
    "compound": "CC[C@H](COS(=O)OCCF)Oc1ccc(Cl)cc1Cl (stereo partly drawn) [19′-(R,S)]",
    "label.value": 1.0
  },
  {
    "compound": "CC[C@@H](COS(=O)OCCF)Oc1ccc(Cl)cc1Cl (stereo partly drawn) [19′-(S,R)]",
    "label.value": 1.0
  },
  {
    "compound": "CC(C)(COS(=O)OCCF)Oc1ccc(Cl)cc1Cl (stereo not drawn) [Compound 10′]",
    "label.value": 0.0
  },
  {
    "compound": "CC(C)(COc1ccc(Cl)cc1Cl)OS(=O)OCCF (stereo not drawn) [Compound R-10]",
    "label.value": 1.0
  },
  {
    "compound": "C[C@@H](COS(=O)OCCF)Oc1ccc(Cl)cc1Cl (stereo partly drawn) [1-(S,S)]",
    "label.value": 0.0
  },
  {
    "compound": "CCC(COc1ccc(Cl)cc1Cl)OS(=O)OCCF (stereo not drawn) [Compound 19]",
    "label.value": 0.0
  },
  {
    "compound": "CC(COc1ccc(Cl)cc1Cl)OS(=O)OCCF [1′-(S,S)]",
    "label.value": 1.0
  },
  {
    "compound": "C[C@H](COS(=O)OCCF)Oc1ccc(Cl)cc1Cl (stereo partly drawn) [1-(R,R)]",
    "label.value": 0.0
  },
  {
    "compound": "C[C@@H](COS(=O)OCCF)Oc1ccc(Cl)cc1Cl (stereo partly drawn) [1-(S,R)]",
    "label.value": 1.0
  },
  {
    "compound": "CC[C@@H](COS(=O)OCCF)Oc1ccc(Cl)cc1Cl (stereo partly drawn) [19′-(S,S)]",
    "label.value": 0.0
  },
  {
    "compound": "CC(C)(COS(=O)OCCF)Oc1ccc(Cl)cc1Cl (stereo not drawn) [R-10′]",
    "label.value": 1.0
  },
  {
    "compound": "CC(C)(COS(=O)OCCF)Oc1ccc(Cl)cc1Cl (stereo not drawn) [S-10′]",
    "label.value": 0.0
  },
  {
    "compound": "CC(COS(=O)OCCF)Oc1ccc(Cl)cc1Cl (stereo not drawn) [Compound 1]",
    "label.value": 0.0
  },
  {
    "compound": "CCC(COS(=O)OCCF)Oc1ccc(Cl)cc1Cl (stereo not drawn) [Compound 19′]",
    "label.value": 0.0
  },
  {
    "compound": "C[C@H](COS(=O)OCCF)Oc1ccc(Cl)cc1Cl (stereo partly drawn) [1-(R,S)]",
    "label.value": 1.0
  }
]
